Origin of values: patent US8541427B2

Biological target: CYP3A4 (Homo sapiens (Human), UniProt P08684)
Sequence (P08684 whole entry): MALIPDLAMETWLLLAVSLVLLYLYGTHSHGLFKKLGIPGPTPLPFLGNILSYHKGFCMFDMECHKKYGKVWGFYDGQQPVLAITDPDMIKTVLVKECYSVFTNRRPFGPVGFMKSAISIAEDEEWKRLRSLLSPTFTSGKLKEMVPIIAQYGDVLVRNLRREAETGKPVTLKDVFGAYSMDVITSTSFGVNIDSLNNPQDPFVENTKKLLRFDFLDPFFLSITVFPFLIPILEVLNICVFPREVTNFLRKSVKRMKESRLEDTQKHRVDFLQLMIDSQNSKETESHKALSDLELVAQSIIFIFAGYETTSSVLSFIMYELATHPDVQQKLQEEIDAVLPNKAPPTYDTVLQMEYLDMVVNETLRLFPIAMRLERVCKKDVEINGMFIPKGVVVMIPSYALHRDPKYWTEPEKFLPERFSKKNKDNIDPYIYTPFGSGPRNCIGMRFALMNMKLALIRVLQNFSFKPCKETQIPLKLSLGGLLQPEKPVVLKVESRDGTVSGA
Assay: CYP Inhibition Assay, CYP3A4;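 further: CYP probe substrate held near its Km, inhibition judged from metabolite formation quantified by LC-MS/MS against a standard curve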
Type: in vitro ADME
Conditions: human liver microsomes, co-incubation; read-out: CYP 3A4 IC50 co
recordedEndpoint: IC50

Reference set, count: 2
compound: COc1nc(N2C[C@H]3C(=O)N(C)C(=N)N[C@@]3(c3cc(Cl)ccc3F)C2)nc(C)c1F [Example 3]
targetSystem: CYP3A4 (Homo sapiens (Human), UniProt P08684)
IC50: > 20 µM
//
compound: COc1nc(N2C[C@H]3C(=O)N(C)C(=N)N[C@@]3(c3ccc(F)cc3Cl)C2)nc(C)c1F [Example 20]
targetSystem: CYP3A4 (Homo sapiens (Human), UniProt P08684)
IC50: > 20 µM

For the compound shown here, CCc1nc(N2C[C@H]3C(=O)N(C)C(N)=N[C@@]3(c3ccccc3)C2)nc(C)c1F (racemic) [5 racemic] , give the reported IC50. > 30 µM

For the compound shown here, COc1nc(N2C[C@H]3C(=O)N(C)C(=N)N[C@@]3(c3ccc(F)cc3F)C2)nc(CO)c1F [Example 43] , give the reported IC50. > 20 µM

====

Target: CYP2D6 (Homo sapiens (Human))
Assay: CYP Inhibition Assay, CYP2D6
Type: in vitro ADME
Details: human liver microsomes, co-incubation; read-out: CYP 2D6 IC50 co
recordedEndpoint: IC50

molecule: COc1nc(N2C[C@H]3C(=O)N(C)C(=N)N[C@@]3(c3ccc(F)cc3Cl)C2)nc(C)c1F [Example 20]
IC50: > 20 µM
--
molecule: COc1nc(N2C[C@H]3C(=O)N(C)C(=N)N[C@@]3(c3ccc(F)cc3F)C2)nc(OC)c1F [Example 10]
IC50: ~30 µM
--
molecule: COc1nc(N2C[C@H]3C(=O)N(C)C(=N)N[C@@]3(c3cccc(C#N)c3)C2)nc(C)c1F [Example 36]
IC50: > 20 µM
--
molecule: COc1nc(N2C[C@H]3C(=O)N(C)C(=N)N[C@@]3(c3cc(F)ccc3Cl)C2)nc(C)c1F [Example 2]
IC50: > 20 µM
--
molecule: COc1nc(N2C[C@H]3C(=O)N(C)C(=N)N[C@@]3(c3cc(Cl)ccc3F)C2)nc(C)c1F [Example 3]
IC50: > 20 µM

Request body: readout IC50, system CYP2D6 (Homo sapiens (Human)), query COc1nc(N2C[C@H]3C(=O)N(C)C(=N)N[C@@]3(c3c(F)cc(F)cc3F)C2)nc(C)c1F [Example 13] . Return the value. > 20 µM

Request body: readout IC50, system CYP2D6 (Homo sapiens (Human)), query Cc1nc(N2C[C@H]3C(=O)N(C)C(=N)N[C@@]3(c3cc(F)ccc3F)C2)nc(C2CC2)c1F [Example 37] . Return the value. > 20 µM

Request body: readout IC50, system CYP2D6 (Homo sapiens (Human)), query COc1nc(N2C[C@H]3C(=O)N(C)C(N)=N[C@@]3(c3c(F)cc(F)c(F)c3F)C2)nc(C)c1F [Example 29] . Return the value. > 30 µM

Request body: readout IC50, system CYP2D6 (Homo sapiens (Human)), query CCc1nc(N2C[C@H]3C(=O)N(C)C(=N)N[C@@]3(c3cc(F)c(F)cc3F)C2)nc(OC)c1F [Example 22] . Return the value. > 20 µM

====

Recorded IC50 by entry
Molecular target: CYP2D6 (Homo sapiens (Human))
Experiment: CYP Inhibition Assay, CYP2D6
Format: in vitro ADME
Conditions: human liver microsomes, co-incubation; read-out: CYP 2D6 IC50 co

compound: CCc1nc(N2C[C@H]3C(=O)N(C)C(=N)N[C@@]3(c3cc(F)ccc3F)C2)nc(OC)c1F
IC50: > 20 µM

compound: CCc1nc(N2C[C@H]3C(=O)N(C)C(N)=N[C@@]3(c3ccccc3)C2)nc(C)c1F (racemic) [5 racemic]
IC50: ~30 µM

compound: CCc1nc(N2C[C@H]3C(=O)N(C)C(=N)N[C@@]3(c3ccccc3)C2)nc(OC)c1F (racemic) [6 racemic]
IC50: 24.9 µM

compound: COc1nc(N2C[C@H]3C(=O)N(C)C(=N)N[C@@]3(c3ccc(F)cc3)C2)nc(C2CC2)c1F
IC50: 13.7 µM

compound: COc1nc(N2C[C@H]3C(=O)N(C)C(=N)N[C@@]3(c3ccc(F)cc3F)C2)nc(C2CC2)c1F
IC50: > 20 µM

compound: CCc1nc(N2C[C@H]3C(=O)N(C)C(N)=N[C@@]3(c3ccccc3)C2)nc(C2CC2)c1Cl (racemic) [26 racemic]
IC50: > 20 µM

Attention now shifts to the item below.
For the compound shown here, Cc1nc(N2C[C@H]3C(=O)N(C)C(N)=N[C@@]3(c3ccccc3)C2)nc(C)c1F (racemic) [23 racemic] , give the reported IC50. > 30 µM

====

Target: CYP2C9 (Homo sapiens (Human))
Sequence (P11712 whole entry): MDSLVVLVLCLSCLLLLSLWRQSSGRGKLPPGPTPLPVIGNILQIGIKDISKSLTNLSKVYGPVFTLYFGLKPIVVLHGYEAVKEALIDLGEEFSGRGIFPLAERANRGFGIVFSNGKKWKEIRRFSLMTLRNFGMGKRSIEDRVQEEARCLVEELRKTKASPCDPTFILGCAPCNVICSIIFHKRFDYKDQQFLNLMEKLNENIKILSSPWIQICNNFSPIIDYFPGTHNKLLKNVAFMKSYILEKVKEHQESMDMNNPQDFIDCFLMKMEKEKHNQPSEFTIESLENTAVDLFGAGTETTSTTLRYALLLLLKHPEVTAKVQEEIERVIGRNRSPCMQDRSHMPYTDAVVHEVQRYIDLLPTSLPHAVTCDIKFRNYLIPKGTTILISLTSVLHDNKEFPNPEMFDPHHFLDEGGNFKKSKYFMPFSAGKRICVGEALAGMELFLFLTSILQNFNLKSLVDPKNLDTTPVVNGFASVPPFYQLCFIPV
Test: CYP Inhibition Assay, CYP2C9;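 further: probe substrate held close to its Km, with metabolite formation quantified by LC-MS/MS against a calibration curve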
Assay type: in vitro ADME
Conditions: human liver microsomes, co-incubation; read-out: CYP 2C9 IC50 co
Recorded IC50 by entry

Reference set, count: 4
compound: COc1nc(N2C[C@H]3C(=O)N(C)C(N)=N[C@@]3(c3c(F)ccc(F)c3F)C2)nc(C)c1F
targetSystem: CYP2C9 (Homo sapiens (Human))
IC50: > 20 µM
//
compound: COc1nc(N2C[C@H]3C(=O)N(C)C(N)=N[C@@]3(c3cc(F)c(F)cc3F)C2)nc(C)c1F
targetSystem: CYP2C9 (Homo sapiens (Human))
IC50: > 20 µM
//
compound: CCc1nc(N2C[C@H]3C(=O)N(C)C(=N)N[C@@]3(c3ccc(F)cc3F)C2)nc(OC)c1F
targetSystem: CYP2C9 (Homo sapiens (Human))
IC50: > 20 µM
//
compound: CCc1nc(N2C[C@H]3C(=O)N(C)C(=N)N[C@@]3(c3ccc(F)cc3)C2)nc(OC)c1F
targetSystem: CYP2C9 (Homo sapiens (Human))
IC50: > 30 µM

For the compound shown here, CCOc1nc(N2C[C@H]3C(=O)N(C)C(=N)N[C@@]3(c3ccccc3)C2)nc(OC)c1F (racemic) [24 racemic] , give the reported IC50. > 30 µM

For the compound shown here, Cc1nc(N2C[C@H]3C(=O)N(C)C(=N)N[C@@]3(c3cc(F)ccc3F)C2)nc(C2CC2)c1F , give the reported IC50. > 20 µM

For the compound shown here, CCc1nc(N2C[C@H]3C(=O)N(C)C(N)=N[C@@]3(c3ccccc3)C2)nc(C2CC2)c1Cl (racemic) [26 racemic] , give the reported IC50. > 20 µM

====

Target: soluble human BACE1 catalytic domain (Homo sapiens (Human), UniProt P56817)
Sequence (P56817 75-416): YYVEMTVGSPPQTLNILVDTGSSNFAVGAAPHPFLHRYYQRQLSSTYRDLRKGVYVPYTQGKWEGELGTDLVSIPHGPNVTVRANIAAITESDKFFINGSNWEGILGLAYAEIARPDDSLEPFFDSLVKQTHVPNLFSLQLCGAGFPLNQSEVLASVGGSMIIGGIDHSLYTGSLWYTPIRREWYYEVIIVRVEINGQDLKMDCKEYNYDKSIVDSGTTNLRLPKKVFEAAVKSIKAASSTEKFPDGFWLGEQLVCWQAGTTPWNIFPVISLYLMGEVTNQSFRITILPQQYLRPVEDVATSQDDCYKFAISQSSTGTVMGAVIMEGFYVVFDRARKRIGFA
Test: BACE1 HTRF FRET Assay;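 further: cleavage of a quenched APP Swedish mutant peptide (QSY7 quencher, Europium donor) measured as rise in 620 nm fluorescence after 1.5 h at 30 °C, inhibition suppresses signal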
Assay type: biochemical
Conditions: Ki calculated from IC50 with Cheng-Prusoff equation
recordedEndpoint: Ki (nM)

a. Cc1nc(N2C[C@H]3C(=O)N(C)C(N)=N[C@@]3(c3ccccc3)C2)nc(C2CC2)c1Cl (racemic) [7 racemic]
b. Cc1nc(N2C[C@H]3C(=O)N(C)C(N)=N[C@@]3(c3ccccc3)C2)nc(C2CC2)c1F (racemic) [25 racemic]
Given a and b , report the one with the higher recorded Ki. // respond with label for picked entry a

I. COc1nc(N2C[C@H]3C(=O)N(C)C(=N)N[C@@]3(c3ccc(F)c(Cl)c3F)C2)nc(C)c1F (racemic) [39 racemic]
II. COc1nc(N2C[C@H]3C(=O)N(C)C(=N)N[C@@]3(c3cccc(Cl)c3)C2)nc(C)c1F
Given I and II , report the one with the higher recorded Ki. // respond with label for picked entry II
(II: 39 nM, I: 9.2 nM)

1. Cc1nc(N2C[C@H]3C(=O)N(C)C(=N)N[C@@]3(c3cc(F)ccc3F)C2)nc(C2CC2)c1F
2. COc1nc(N2C[C@H]3C(=O)N(C)C(=N)N[C@@]3(c3cccc(C#N)c3)C2)nc(C)c1F
Param metric = Ki; output whichever of 1 , 2 has the minimum value. // respond with label for picked entry 2

====

Target: CYP2D6 (Homo sapiens (Human), UniProt P10635)
Sequence (P10635 whole entry): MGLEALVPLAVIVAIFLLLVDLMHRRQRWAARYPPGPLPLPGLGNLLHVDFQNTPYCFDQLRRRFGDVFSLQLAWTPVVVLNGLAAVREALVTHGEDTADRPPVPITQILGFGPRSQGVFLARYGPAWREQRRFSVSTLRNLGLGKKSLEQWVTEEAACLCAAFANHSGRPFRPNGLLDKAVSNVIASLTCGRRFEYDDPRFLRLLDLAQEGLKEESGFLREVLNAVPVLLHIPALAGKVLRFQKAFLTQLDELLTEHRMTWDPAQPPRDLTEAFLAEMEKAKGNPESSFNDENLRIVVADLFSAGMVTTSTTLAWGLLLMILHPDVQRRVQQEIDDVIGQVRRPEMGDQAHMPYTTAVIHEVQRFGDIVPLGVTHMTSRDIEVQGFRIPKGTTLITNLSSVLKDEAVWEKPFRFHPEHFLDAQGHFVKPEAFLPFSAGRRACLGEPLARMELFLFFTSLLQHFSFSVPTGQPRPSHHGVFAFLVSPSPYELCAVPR
Assay: CYP Inhibition Assay, CYP2D6
Type: in vitro ADME
Settings: human liver microsomes, co-incubation; read-out: CYP 2D6 IC50 co
pIC50: −log10 of the molar value.
recordedEndpoint: pIC50

Reference set, count: 6
compound: CCOc1nc(N2C[C@H]3C(=O)N(C)C(N)=N[C@@]3(c3ccccc3)C2)nc(C)c1F (racemic) [4 racemic]
targetSystem: CYP2D6 (Homo sapiens (Human), UniProt P10635)
pIC50: ~4.52
--
compound: Cc1nc(N2C[C@H]3C(=O)N(C)C(=N)N[C@@]3(c3cccc(C#N)c3)C2)nc(C2CC2)c1F [Example 14]
targetSystem: CYP2D6 (Homo sapiens (Human), UniProt P10635)
pIC50: < 4.70
--
compound: COc1nc(N2C[C@H]3C(=O)N(C)C(=N)N[C@@]3(c3cc(F)ccc3F)C2)nc(OC)c1F [Example 9]
targetSystem: CYP2D6 (Homo sapiens (Human), UniProt P10635)
pIC50: < 4.52
--
compound: Cc1nc(N2C[C@H]3C(=O)N(C)C(=N)N[C@@]3(c3ccc(F)cc3)C2)nc(C)c1F [Example 28]
targetSystem: CYP2D6 (Homo sapiens (Human), UniProt P10635)
pIC50: 4.63
--
compound: COc1nc(N2C[C@H]3C(=O)N(C)C(N)=N[C@@]3(c3cc(F)c(F)cc3F)C2)nc(C)c1F [Example 8]
targetSystem: CYP2D6 (Homo sapiens (Human), UniProt P10635)
pIC50: < 4.70
--
compound: COc1nc(N2C[C@H]3C(=O)N(C)C(=N)N[C@@]3(c3cc(F)ccc3F)C2)nc(C2CC2)c1Cl [Example 35]
targetSystem: CYP2D6 (Homo sapiens (Human), UniProt P10635)
pIC50: < 4.70

For the compound shown here, CCc1nc(N2C[C@H]3C(=O)N(C)C(=N)N[C@@]3(c3ccc(F)cc3F)C2)nc(OC)c1F [Example 32] , give the reported pIC50. < 4.70

For the compound shown here, COc1nc(N2C[C@H]3C(=O)N(C)C(=N)N[C@@]3(c3ccc(F)cc3F)C2)nc(C2CC2)c1Cl [Example 19] , give the reported pIC50. < 4.70

For the compound shown here, Cc1nc(N2C[C@H]3C(=O)N(C)C(N)=N[C@@]3(c3ccccc3)C2)nc(C2CC2)c1F (racemic) [25 racemic] , give the reported pIC50. < 4.70

For the compound shown here, COc1nc(N2C[C@H]3C(=O)N(C)C(=N)N[C@@]3(c3ccc(F)cc3)C2)nc(OC)c1F [Example 27] , give the reported pIC50. 4.83
